Biological target: T1, IL10Rα/IL2Rγ receptor (human) (UniProt Q13651)
T1 sequence (looked up) 1: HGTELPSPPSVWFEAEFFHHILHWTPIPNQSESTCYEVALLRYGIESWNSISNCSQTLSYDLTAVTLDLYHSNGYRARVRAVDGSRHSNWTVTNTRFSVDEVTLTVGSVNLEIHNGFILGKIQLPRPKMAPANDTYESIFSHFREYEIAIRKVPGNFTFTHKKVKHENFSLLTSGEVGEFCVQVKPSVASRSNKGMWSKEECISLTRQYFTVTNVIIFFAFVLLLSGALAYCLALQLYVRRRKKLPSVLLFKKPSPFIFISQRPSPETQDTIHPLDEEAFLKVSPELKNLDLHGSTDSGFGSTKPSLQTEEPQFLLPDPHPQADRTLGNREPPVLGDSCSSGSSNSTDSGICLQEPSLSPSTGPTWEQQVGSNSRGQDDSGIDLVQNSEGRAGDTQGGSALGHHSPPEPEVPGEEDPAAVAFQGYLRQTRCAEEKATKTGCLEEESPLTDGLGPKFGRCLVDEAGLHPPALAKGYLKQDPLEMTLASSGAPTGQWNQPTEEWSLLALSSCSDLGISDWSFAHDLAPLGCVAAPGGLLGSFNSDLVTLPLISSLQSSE
T1 sequence (looked up) 2: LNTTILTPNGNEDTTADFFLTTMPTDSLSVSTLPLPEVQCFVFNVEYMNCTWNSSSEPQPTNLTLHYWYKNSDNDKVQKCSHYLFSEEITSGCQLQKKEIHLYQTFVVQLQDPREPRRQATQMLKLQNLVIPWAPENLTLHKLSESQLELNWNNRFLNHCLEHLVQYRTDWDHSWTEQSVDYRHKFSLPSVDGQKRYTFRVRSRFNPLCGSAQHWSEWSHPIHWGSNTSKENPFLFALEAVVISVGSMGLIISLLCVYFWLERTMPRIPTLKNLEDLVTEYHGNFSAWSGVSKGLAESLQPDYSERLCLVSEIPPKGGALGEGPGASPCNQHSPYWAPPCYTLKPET
Test: cell-based or functional assay

binder | unit_of_measure | IL-9 secretion, CD8 T cells, at 0 µM
hIL10Ra_VHH14 - hIL2Rg_VHH19, No linker, tag his (bispecific antibody, not shown: small tags and cut ends) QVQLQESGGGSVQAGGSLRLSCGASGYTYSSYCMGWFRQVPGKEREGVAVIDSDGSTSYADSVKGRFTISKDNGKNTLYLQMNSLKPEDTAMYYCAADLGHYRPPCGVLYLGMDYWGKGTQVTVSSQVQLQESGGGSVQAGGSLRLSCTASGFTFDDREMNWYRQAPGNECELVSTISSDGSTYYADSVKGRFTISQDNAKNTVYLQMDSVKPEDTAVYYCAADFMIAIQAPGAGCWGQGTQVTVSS | pg/mL | 1350
hIL10Ra_VHH14 - hIL2Rg_VHH19, linker GGSGGS, tag his (bispecific antibody, not shown: small tags and cut ends) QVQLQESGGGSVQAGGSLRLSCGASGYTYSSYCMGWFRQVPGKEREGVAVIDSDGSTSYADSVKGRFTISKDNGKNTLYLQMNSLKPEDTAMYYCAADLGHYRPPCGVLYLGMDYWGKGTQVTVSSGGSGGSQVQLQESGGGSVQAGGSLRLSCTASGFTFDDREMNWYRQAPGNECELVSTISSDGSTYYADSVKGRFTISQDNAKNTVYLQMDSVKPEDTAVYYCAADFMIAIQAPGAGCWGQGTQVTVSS | pg/mL | 1350
hIL10Ra_VHH14 - hIL2Rg_VHH19, linker GS, tag his (bispecific antibody, not shown: small tags and cut ends) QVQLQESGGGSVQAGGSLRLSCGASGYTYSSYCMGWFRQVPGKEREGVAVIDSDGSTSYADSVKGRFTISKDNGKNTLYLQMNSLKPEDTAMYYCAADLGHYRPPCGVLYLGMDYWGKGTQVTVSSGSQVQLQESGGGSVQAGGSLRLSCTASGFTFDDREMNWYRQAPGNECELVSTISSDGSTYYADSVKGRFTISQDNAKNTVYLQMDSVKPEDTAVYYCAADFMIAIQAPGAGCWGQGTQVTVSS | pg/mL | 1350
hIL10Ra_VHH14 - hIL2Rg_VHH19, linker …, tag his (bispecific antibody, not shown: small tags and cut ends) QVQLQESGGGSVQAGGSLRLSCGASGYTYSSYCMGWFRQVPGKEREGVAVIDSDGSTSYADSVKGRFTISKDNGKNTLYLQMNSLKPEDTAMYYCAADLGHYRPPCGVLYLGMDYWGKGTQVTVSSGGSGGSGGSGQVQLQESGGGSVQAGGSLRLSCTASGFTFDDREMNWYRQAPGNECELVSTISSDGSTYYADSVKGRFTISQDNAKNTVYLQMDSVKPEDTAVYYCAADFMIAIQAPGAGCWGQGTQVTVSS | pg/mL | 1350
